Settings: 303.15 K; 101.33 kPa; Liquid; Laser flash apparatus
quantityMeasured: thermal diffusivity (m2/s)

compound	unitLabel	thermal diffusivity
CCCCCCCCCC(=O)OC [methyl decanoate]	m2/s	8.1e-08
CCCCCCCCCCCC(=O)OC [methyl dodecanoate]	m2/s	8.27e-08
CCCCCCCCCCC(=O)OC [methyl undecanoate]	m2/s	8.22e-08
CCCCCCCC(=O)OC [methyl octanoate]	m2/s	7.92e-08
CCCCCCCCC(=O)OC [methyl nonanoate]	m2/s	8.01e-08
CCCCCCC(=O)OC [methyl heptanoate]	m2/s	7.82e-08
CCCCCC(=O)OC [methyl hexanoate]	m2/s	7.76e-08

* * *

Assay: molar heat capacity at constant pressure
Conditions: 353.15 K; 101.33 kPa; Liquid; DSC
quantityMeasured: molar heat capacity at constant pressure (J/K/mol)

molecule	unitLabel	molar heat capacity at constant pressure
CCCCCCC(=O)OC [methyl heptanoate]	J/K/mol	308.6
CCCCCCCCCC(=O)OC [methyl decanoate]	J/K/mol	407.3
CCCCCCCC(=O)OC [methyl octanoate]	J/K/mol	337.8
CCCCCCCCCCCC(=O)OC [methyl dodecanoate]	J/K/mol	474.5

(P) CCCCCC(=O)OC [methyl hexanoate]
(Q) CCCCCCCCCCC(=O)OC [methyl undecanoate]
In: For P and Q , which recorded molar heat capacity at constant pressure is lower? Record your answer as the label of the chosen record.
Out: P

* * *

Conditions: 333.15 K; 101.33 kPa; Liquid; Laser flash apparatus
quantityMeasured: thermal diffusivity (m2/s)

compound	quantityMeasured	endpointResult
CCCCCC(=O)OC [methyl hexanoate]	thermal diffusivity	7.46e-08
CCCCCCC(=O)OC [methyl heptanoate]	thermal diffusivity	7.48e-08
CCCCCCCCC(=O)OC [methyl nonanoate]	thermal diffusivity	7.66e-08
CCCCCCCCCCCC(=O)OC [methyl dodecanoate]	thermal diffusivity	7.91e-08
CCCCCCCC(=O)OC [methyl octanoate]	thermal diffusivity	7.57e-08
CCCCCCCCCC(=O)OC [methyl decanoate]	thermal diffusivity	7.75e-08
CCCCCCCCCCC(=O)OC [methyl undecanoate]	thermal diffusivity	7.86e-08

* * *

Assay: molar heat capacity at constant pressure
Conditions: 303.15 K; 101.33 kPa; Liquid; DSC
quantityMeasured: molar heat capacity at constant pressure (J/K/mol)

compound	unitLabel	molar heat capacity at constant pressure
CCCCCCCC(=O)OC [methyl octanoate]	J/K/mol	316.6
CCCCCCCCCC(=O)OC [methyl decanoate]	J/K/mol	384.7
CCCCCCCCC(=O)OC [methyl nonanoate]	J/K/mol	351.7
CCCCCCC(=O)OC [methyl heptanoate]	J/K/mol	289.2
CCCCCCCCCCC(=O)OC [methyl undecanoate]	J/K/mol	411.4

(I) CCCCCC(=O)OC [methyl hexanoate]
(II) CCCCCCCCCCCC(=O)OC [methyl dodecanoate]
In: For I and II , which recorded molar heat capacity at constant pressure is lower? Record your answer as the label of the chosen record.
Out: I

* * *

Assay: molar heat capacity at constant pressure
Settings: 313.15 K; 101.33 kPa; Liquid; DSC
quantityMeasured: molar heat capacity at constant pressure (J/K/mol)

compound	unitLabel	molar heat capacity at constant pressure
CCCCCCCCCC(=O)OC [methyl decanoate]	J/K/mol	387.6

(I) CCCCCCCCCCCC(=O)OC [methyl dodecanoate]
(II) CCCCCC(=O)OC [methyl hexanoate]
In: For I and II , which recorded molar heat capacity at constant pressure is lower? Record your answer as the label of the chosen record.
Out: II
(II: 248.8 J/K/mol, I: 452.8 J/K/mol)
